# System: Septoria tritici (Qo-inhibitor sensitive, wild-type)
# Method Notes: Microtiter test, Septoria tritici Qo-inhibitor sensitive wild-type (Use Example 1)
# Assay type: cell-based
# Study Conditions: turbidity at 620 nm, read-out: Sensitive Septoria tritici isolate (wild type) (S-IC50)
Classification field. Basis: IC50. Definitions: low group (below 800 nM), middle group (800 nM to below 4000 nM), high group (4000 nM or more)

C#CCO/N=C(\C)c1ccc(OCc2ccccc2-n2nnn(C)c2=O)c(C)c1	middle group
Cc1cn(-c2ccc(Cl)cc2)nc1OCc1ccccc1-n1nnn(C)c1=O	low group
CON=C(C(=O)OC)C(C)=CCOc1ccn(-c2ccc(Cl)cc2)n1	low group

Class label required: `CCON=C(C)c1cc(C)c(OCc2ccccc2-n2nnn(CC)c2=O)cc1C`
high group

Please indicate the class for `C=C(Cl)CON=C(C)c1ccc(OCC=C(C)C(=NOC)C(=O)OC)c(C)c1` based on its IC50.
middle group

Categorize the following entry: `Cc1ncc(-c2cc(C)c(OCc3ccccc3-n3nnn(C)c3=O)cc2C)o1`
high group

Hi there! Could you help me figure out the category for `CC(=NOCc1ccccc1-n1nnn(C)c1=O)c1cccc(-c2cnn(-c3ccccc3)c2)c1` please?
low group
